Target: full-length recombinant human NEK7 (Homo sapiens)
Construct: full-length recombinant human NEK7; GST (N)
Test: NEK7 Enzymatic Assay
Settings: casein substrate, [33P]-ATP, 2 hours at room temperature
pIC50: −log10 of the molar value.
measuredMetric: pIC50

Use these answered entries as a reference point.
- CC(C)(C#N)c1cc(NC(=O)Nc2ccc(-c3nn(C4CC4)c4ncnc(N)c34)cc2F)on1: > 6.82
- CN1CC(n2nc(-c3ccc(NC(=O)Nc4cc(C5(C(F)(F)F)CC5)no4)c(F)c3)c3c(N)ncnc32)C1: < 6.30
- Nc1ncnc2c1c(-c1ccc(NC(=O)Nc3cc(C4(C(F)(F)F)CC4)no3)c(F)c1)nn2CCO: > 6.82

Kindly give each listed record's pIC50.
1. CC(C)(C)c1nnc(NC(=O)Nc2ccc(-c3nn(C4CC4)c4ncnc(N)c34)cc2F)s1
2. Nc1ncnc2c1c(-c1ccc(NC(=O)Nc3cc(C4(C(F)(F)F)CC4)on3)c(CO)c1)nn2C1CC1

Return:
1. < 6.30
2. < 6.30

---

So I've got a bunch of compounds here, and I need their pIC50 values.
Target: full-length recombinant human NEK7 (Homo sapiens, UniProt Q8TDX7)
Construct: full-length recombinant human NEK7; GST (N)
Sequence (Q8TDX7 whole entry): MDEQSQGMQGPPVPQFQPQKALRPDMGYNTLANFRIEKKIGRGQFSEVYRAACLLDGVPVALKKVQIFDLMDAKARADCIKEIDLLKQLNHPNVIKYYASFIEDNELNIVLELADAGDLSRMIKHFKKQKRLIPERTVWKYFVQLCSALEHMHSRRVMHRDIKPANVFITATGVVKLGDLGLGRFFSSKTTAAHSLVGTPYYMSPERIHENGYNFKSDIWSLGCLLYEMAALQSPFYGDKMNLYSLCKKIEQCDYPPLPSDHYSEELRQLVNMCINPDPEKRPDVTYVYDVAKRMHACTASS
Assay: NEK7 Enzymatic Assay
Conditions: casein substrate, [33P]-ATP, 2 hours at room temperature
Excerpt: […]
pIC50: −log10 of the molar value.

Use these answered entries as a reference point.
* CC(C)(O)Cn1nc(-c2ccc(NC(=O)Nc3cc(C4(C(F)(F)F)CC4)on3)c(F)c2)c2c(N)ncnc21 | 6.30 to 6.52
* CC(C)(C)c1csc(NC(=O)Nc2ccc(-c3nn(C4CC4)c4ncnc(N)c34)cc2F)n1 | < 6.30
* CC(C)(C)c1cc(NC(=O)Nc2ccc(-c3nn(C4CC4)c4ccnc(N)c34)cc2)on1 | < 6.30
* CC(C)(C)c1cc(NC(=O)Nc2ccc(-c3nn(C4CC4)c4ncnc(N)c34)cc2F)sn1 | < 6.30
* CN1CC(n2nc(-c3ccc(NC(=O)Nc4cc(C5(C(F)(F)F)CC5)on4)c(F)c3)c3c(N)ncnc32)C1 | < 6.30

Kindly give each listed record's pIC50.
1. CCc1cc(NC(=O)Nc2ccc(-c3nn(C4CC4)c4ncnc(N)c34)cc2F)on1
2. Nc1ncnc2c1c(-c1ccc(NC(=O)Nc3cc(C4(C(F)(F)F)CC4)on3)c(F)c1)nn2C1CC(O)C1 (stereo not shown)

Return:
["6.52 to 6.82", "> 6.82"]

Kindly give each listed record's pIC50.
1. CC(C)(F)c1cc(NC(=O)Nc2ccc(-c3nn(C4CC4)c4ncnc(N)c34)cc2F)on1
2. CC(C)n1nc(-c2ccc(NC(=O)Nc3cc(C(C)(C)C)no3)c(Cl)c2)c2c(N)ncnc21
3. CC(C)(C)c1nsc(NC(=O)Nc2ccc(-c3nn(C4CC4)c4ncnc(N)c34)cc2F)n1

Return:
["< 6.30", "< 6.30", "< 6.30"]

---

So I've got a bunch of compounds here, and I need their IC50 values.
Molecular target: full-length recombinant human NEK7 (Homo sapiens)
Construct: full-length recombinant human NEK7; GST (N)
Assay: NEK7 Enzymatic Assay
Details: casein substrate, [33P]-ATP, 2 hours at room temperature

Kindly give each listed record's IC50.
1. Nc1ncnc2c1c(-c1cc(F)c(NC(=O)Nc3cc(C4(C(F)(F)F)CC4)on3)cc1F)nn2C1CC1
2. CC(C)(C)n1cnc(NC(=O)Nc2ccc(-c3nn(C4CC4)c4ncnc(N)c34)cc2F)n1
3. COCCn1nc(-c2ccc(NC(=O)Nc3cc(C4(C(F)(F)F)CC4)on3)c(F)c2)c2c(N)ncnc21
4. Cc1cc(-c2nn(C3CC3)c3ncnc(N)c23)ccc1NC(=O)Nc1cc(C2(C(F)(F)F)CC2)on1
5. Nc1ncnc2c1c(-c1cc(F)c(NC(=O)Nc3cc(C4(C(F)(F)F)CC4)no3)cc1F)nn2C1CC1
6. CC(C)(C)c1cc(NC(=O)Nc2ccc(-c3nn(C4CC(F)(F)C4)c4ncnc(N)c34)cc2F)on1

Return:
["301 to 500 nM", "> 501 nM", "151 to 300 nM", "> 501 nM", "301 to 500 nM", "> 501 nM"]
